- test description: activity coefficient (dimensionless); of the first substance listed, at infinite dilution; xn = mol fraction of the nth substance listed
- condition parameters: 318.15 K; Liquid; Chromatography; x1 = 0
Listed compounds paired with reported activity coefficient
// response body must contain only the number

| compound | activity coefficient |
| --- | --- |
| CO [methanol] + COCC[N+]1(C)CCOCC1.O=S(=O)([N-]S(=O)(=O)C(F)(F)F)C(F)(F)F | 1.28 |

Record request: activity coefficient value, item CCCC(=O)OC [methyl butanoate] + COCC[N+]1(C)CCOCC1.O=S(=O)([N-]S(=O)(=O)C(F)(F)F)C(F)(F)F
1.42

----------
Listed molecules paired with reported activity coefficient
- test description: activity coefficient (dimensionless); of the first substance listed, at infinite dilution; xn = mol fraction of the nth substance listed
- condition parameters: 328.15 K; Liquid; Chromatography; x1 = 0
// response body must contain only the number

| molecule | activity coefficient |
| --- | --- |
| CCCCCCCCC [nonane] + COCC[N+]1(C)CCOCC1.O=S(=O)([N-]S(=O)(=O)C(F)(F)F)C(F)(F)F | 108 |
| CC(=O)O [acetic acid] + COCC[N+]1(C)CCOCC1.O=S(=O)([N-]S(=O)(=O)C(F)(F)F)C(F)(F)F | 0.451 |
| C1CCCC1 [cyclopentane] + COCC[N+]1(C)CCOCC1.O=S(=O)([N-]S(=O)(=O)C(F)(F)F)C(F)(F)F | 11.2 |

Record request: activity coefficient value, item Cc1cccc(C)c1 [1,3-dimethylbenzene] + COCC[N+]1(C)CCOCC1.O=S(=O)([N-]S(=O)(=O)C(F)(F)F)C(F)(F)F
3.02

Record request: activity coefficient value, item CCC(C)O (stereo not given) [butan-2-ol] + COCC[N+]1(C)CCOCC1.O=S(=O)([N-]S(=O)(=O)C(F)(F)F)C(F)(F)F
2.47

Record request: activity coefficient value, item CCO [ethanol] + COCC[N+]1(C)CCOCC1.O=S(=O)([N-]S(=O)(=O)C(F)(F)F)C(F)(F)F
1.61

Record request: activity coefficient value, item c1ccccc1 [benzene] + COCC[N+]1(C)CCOCC1.O=S(=O)([N-]S(=O)(=O)C(F)(F)F)C(F)(F)F
1.32

Record request: activity coefficient value, item C=CCCCCCC [oct-1-ene] + COCC[N+]1(C)CCOCC1.O=S(=O)([N-]S(=O)(=O)C(F)(F)F)C(F)(F)F
34.9

----------
- test description: activity coefficient (dimensionless); of the first substance listed, at infinite dilution; xn = mol fraction of the nth substance listed
- condition parameters: 348.15 K; Liquid; Chromatography; x1 = 0
The label is yes for activity coefficient below 3 and no for activity coefficient equal to or exceeding 3.

Check out these entries, answers already filled in.
| compound | answer label |
| --- | --- |
| COC(C)(C)C [2-methoxy-2-methylpropane] + COCC[N+]1(C)CCOCC1.O=S(=O)([N-]S(=O)(=O)C(F)(F)F)C(F)(F)F | no |
| CC1CCCCC1 [methylcyclohexane] + COCC[N+]1(C)CCOCC1.O=S(=O)([N-]S(=O)(=O)C(F)(F)F)C(F)(F)F | no |
| Cc1ccccc1 [toluene] + COCC[N+]1(C)CCOCC1.O=S(=O)([N-]S(=O)(=O)C(F)(F)F)C(F)(F)F | yes |
| CCC(C)CC [3-methylpentane] + COCC[N+]1(C)CCOCC1.O=S(=O)([N-]S(=O)(=O)C(F)(F)F)C(F)(F)F | no |
| CCC(C)O (configuration not stated) [butan-2-ol] + COCC[N+]1(C)CCOCC1.O=S(=O)([N-]S(=O)(=O)C(F)(F)F)C(F)(F)F | yes |
| CCCCCCC [heptane] + COCC[N+]1(C)CCOCC1.O=S(=O)([N-]S(=O)(=O)C(F)(F)F)C(F)(F)F | no |

activity coefficient under 3? Item: c1ccncc1 [pyridine] + COCC[N+]1(C)CCOCC1.O=S(=O)([N-]S(=O)(=O)C(F)(F)F)C(F)(F)F
yes

activity coefficient under 3? Item: CCOCC [diethyl ether] + COCC[N+]1(C)CCOCC1.O=S(=O)([N-]S(=O)(=O)C(F)(F)F)C(F)(F)F
no

activity coefficient under 3? Item: CCCCCCCCC [nonane] + COCC[N+]1(C)CCOCC1.O=S(=O)([N-]S(=O)(=O)C(F)(F)F)C(F)(F)F
no

activity coefficient under 3? Item: CCCCCCCC [octane] + COCC[N+]1(C)CCOCC1.O=S(=O)([N-]S(=O)(=O)C(F)(F)F)C(F)(F)F
no

activity coefficient under 3? Item: O [water] + COCC[N+]1(C)CCOCC1.O=S(=O)([N-]S(=O)(=O)C(F)(F)F)C(F)(F)F
yes

All values here come from the NIST ThermoML archive (doi:10.1016/j.jct.2011.11.021).
